B1: ANKRD40 (parent)
chain: VRIQNPSLRENDFIEIELDRQELT

Variants of: B1
procedure.summary: protein stability index of a GFP-peptide fusion (GPS, HEK-293T) (PSI 1-6); higher = more stable;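 note: lentivirally expressed fusions sorted by FACS into six bins by GFP to DsRed ratio, PSI derived from sequencing read proportions per bin multiplied by bin number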
protocol.conditions: c terminus: a fixed tail appended
Respond with condition met for protein stability index values of 2 and above, condition not met for values below.

Q: Does the variant N5K have recorded protein stability index that is 2 or more?
Result: condition met

Q: Does the variant I3H have recorded protein stability index that is 2 or more?
Result: condition met

Q: Does the variant F13S have recorded protein stability index that is 2 or more?
Result: condition met

Q: Does the variant D19C have recorded protein stability index that is 2 or more?
Result: condition not met

Q: Does the variant F13I have recorded protein stability index that is 2 or more?
Result: condition met

Q: Does the variant I16L have recorded protein stability index that is 2 or more?
Result: condition met

Q: Does the variant E10R have recorded protein stability index that is 2 or more?
Result: condition not met

Q: Does the variant E22C have recorded protein stability index that is 2 or more?
Result: condition not met

Q: Does the variant I3T have recorded protein stability index that is 2 or more?
Result: condition met

Q: Does the variant Q4F have recorded protein stability index that is 2 or more?
Result: condition not met

Q: Does the variant N11F have recorded protein stability index that is 2 or more?
Result: condition not met

Q: Does the variant R20T have recorded protein stability index that is 2 or more?
Result: condition not met

Q: Does the variant E22S have recorded protein stability index that is 2 or more?
Result: condition met

Q: Does the variant N5A have recorded protein stability index that is 2 or more?
Result: condition not met

Q: Does the variant D12N have recorded protein stability index that is 2 or more?
Result: condition met

Q: Does the variant D19I have recorded protein stability index that is 2 or more?
Result: condition not met

Q: Does the variant Q4I have recorded protein stability index that is 2 or more?
Result: condition met

Q: Does the variant N5R have recorded protein stability index that is 2 or more?
Result: condition met

Q: Does the variant L18N have recorded protein stability index that is 2 or more?
Result: condition met

Q: Does the variant V1Q have recorded protein stability index that is 2 or more?
Result: condition met

Q: Does the variant I3R have recorded protein stability index that is 2 or more?
Result: condition met

Q: Does the variant Q4K have recorded protein stability index that is 2 or more?
Result: condition met

Q: Does the variant E22K have recorded protein stability index that is 2 or more?
Result: condition met

Q: Does the variant N11H have recorded protein stability index that is 2 or more?
Result: condition met

Q: Does the variant I14G have recorded protein stability index that is 2 or more?
Result: condition met

Q: Does the variant L23R have recorded protein stability index that is 2 or more?
Result: condition met

Q: Does the variant R9I have recorded protein stability index that is 2 or more?
Result: condition not met

Q: Does the variant D12V have recorded protein stability index that is 2 or more?
Result: condition met

Q: Does the variant R9P have recorded protein stability index that is 2 or more?
Result: condition met

Q: Does the variant I14W have recorded protein stability index that is 2 or more?
Result: condition met

Q: Does the variant P6G have recorded protein stability index that is 2 or more?
Result: condition met

Q: Does the variant T24M have recorded protein stability index that is 2 or more?
Result: condition met

Q: Does the variant I3N have recorded protein stability index that is 2 or more?
Result: condition met

Q: Does the variant R9E have recorded protein stability index that is 2 or more?
Result: condition met

Q: Does the variant E10F have recorded protein stability index that is 2 or more?
Result: condition not met

Q: Does the variant E22G have recorded protein stability index that is 2 or more?
Result: condition not met

Q: Does the variant I14C have recorded protein stability index that is 2 or more?
Result: condition met

Q: Does the variant T24C have recorded protein stability index that is 2 or more?
Result: condition met

Q: Does the variant P6R have recorded protein stability index that is 2 or more?
Result: condition met

Q: Does the variant I16F have recorded protein stability index that is 2 or more?
Result: condition met

Q: Does the variant I3M have recorded protein stability index that is 2 or more?
Result: condition met

Q: Does the variant D12Q have recorded protein stability index that is 2 or more?
Result: condition met

Q: Does the variant I16C have recorded protein stability index that is 2 or more?
Result: condition met

Q: Does the variant D12K have recorded protein stability index that is 2 or more?
Result: condition met

Q: Does the variant S7L have recorded protein stability index that is 2 or more?
Result: condition met

Q: Does the variant V1D have recorded protein stability index that is 2 or more?
Result: condition met

Q: Does the variant F13A have recorded protein stability index that is 2 or more?
Result: condition met

Q: Does the variant L8A have recorded protein stability index that is 2 or more?
Result: condition met

Q: Does the variant D19Q have recorded protein stability index that is 2 or more?
Result: condition met

Q: Does the variant N5P have recorded protein stability index that is 2 or more?
Result: condition met

Q: Does the variant E10W have recorded protein stability index that is 2 or more?
Result: condition not met

Entry source: the supplement of paper PMC10567573
